Field: Kd. Provide a value for each of the compounds that follow.
Test Target: proteins in FBS
Protocol Description: Fluorescence polarization analysis of CPP binding to FBS
Measurement Parameters: 100 nM labeled peptide, FBS in DPBS, 1 h, FP; read-out: apparent KD to proteins in FBS
Where a SMILES comes first, the peptide text is derived from it. Side-chain parts run from the residue outwards. [ ]: non-standard residue; d: D form. The star is where a group is joined. X2 = NC(=O)[C@H](CCCCNC(=O)c1ccc(-c2c3ccc4cc(O)ccc4c3oc3c2ccc2cc(=O)ccc23)c(C(=O)O)c1)N*; Lys(5-FITC)NH2 = NC(=O)[C@H](CCCCNC(=S)Nc1ccc2c(c1)C(=O)OC21c2ccc(O)cc2Oc2cc(O)ccc21)N*; Bta = N[C@@H](Cc1csc2ccccc12)C(=O)O; AEEA = NCCOCCOCC(=O)O
// unit must come after the numeric part

Value lookup for Kd; key = N=C(N)NCCC[C@@H]1NC(=O)[C@H](Cc2csc3ccccc23)NC(=O)[C@@H](Cc2ccccc2)NC(=O)[C@H](Cc2ccccc2)NC(=O)[C@H](CCC(=O)NCCOCCOCC(=O)N[C@@H](CCCCNC(=S)Nc2ccc3c(c2)C(=O)OC32c3ccc(O)cc3Oc3cc(O)ccc32)C(N)=O)NC(=O)[C@@H](CCCNC(=N)N)NC(=O)[C@H](CCCNC(=N)N)NC(=O)[C@@H](CCCNC(=N)N)NC1=O [CPP12-2^FITC] (cyclo(F[dF][Bta]R[dR]R[dR]E([AEEA-Lys(5-FITC)NH2]))) 30 µM

Value lookup for Kd; key = N=C(N)NCCC[C@@H]1NC(=O)[C@H](Cc2csc3ccccc23)NC(=O)[C@@H](Cc2ccccc2)NC(=O)[C@H](Cc2ccccc2)NC(=O)[C@H](CCC(=O)NCCOCCOCC(=O)N[C@@H](CCCCNC(=O)c2ccc(-c3c4ccc5cc(O)ccc5c4oc4c3ccc3cc(=O)ccc34)c(C(=O)O)c2)C(N)=O)NC(=O)[C@@H](CCCNC(=N)N)NC(=O)[C@H](CCCNC(=N)N)NC(=O)[C@@H](CCCNC(=N)N)NC1=O [CPP12-2, Phe-phe-(Bta)-Arg-arg-Arg-arg-Gln] (cyclo([Bta]R[dR]R[dR]E([AEEA-X2])F[dF])) 1.2 µM

###

Test Target: proteins in FBS
Protocol Description: Fluorescence polarization analysis of CPP binding to FBS
Design: species or system bovine
Measurement Parameters: 100 nM labeled peptide, FBS in DPBS, 1 h, FP; read-out: apparent KD to proteins in FBS
Where a SMILES comes first, the peptide text is derived from it. Side-chain parts run from the residue outwards. [ ]: non-standard residue; d: D form. The star is where a group is joined. X2 = NC(=O)[C@H](CCCCNC(=O)c1ccc(-c2c3ccc4cc(O)ccc4c3oc3c2ccc2cc(=O)ccc23)c(C(=O)O)c1)N*; Lys(5-FITC)NH2 = NC(=O)[C@H](CCCCNC(=S)Nc1ccc2c(c1)C(=O)OC21c2ccc(O)cc2Oc2cc(O)ccc21)N*; X1 = CN(C)c1ccc2c(c1)Oc1cc(N(C)C)ccc1C21OC(=O)c2cc(C(=O)NCCCC[C@H](N*)C(N)=O)ccc21; 2Nal = N[C@@H](Cc1ccc2ccccc2c1)C(=O)O; Bta = N[C@@H](Cc1csc2ccccc12)C(=O)O; AEEA = NCCOCCOCC(=O)O
Recorded Metric: Kd (µM)
Please reply with the bare figure in µM and do not write the unit itself.

Test system proteins in FBS; read-out Kd; what value for CN(C)c1ccc2c(c1)Oc1cc(N(C)C)ccc1C21OC(=O)c2cc(C(=O)NCCCC[C@H](NC(=O)COCCOCCNC(=O)CC[C@@H]3NC(=O)[C@@H](CCCNC(=N)N)NC(=O)[C@H](CCCNC(=N)N)NC(=O)[C@@H](CCCNC(=N)N)NC(=O)[C@H](CCCNC(=N)N)NC(=O)[C@H](Cc4ccc5ccccc5c4)NC(=O)[C@@H](Cc4ccccc4)NC(=O)[C@H](Cc4ccccc4)NC3=O)C(N)=O)ccc21 [CPP12^TMR] (cyclo([2Nal]R[dR]R[dR]E([AEEA-X1])F[dF])) ? 27

Test system proteins in FBS; read-out Kd; what value for N=C(N)NCCC[C@@H]1NC(=O)[C@H](Cc2ccc3ccccc3c2)NC(=O)[C@@H](Cc2ccccc2)NC(=O)[C@H](Cc2ccccc2)NC(=O)[C@H](CCC(=O)NCCOCCOCC(=O)N[C@@H](CCCCNC(=S)Nc2ccc3c(c2)C(=O)OC32c3ccc(O)cc3Oc3cc(O)ccc32)C(N)=O)NC(=O)[C@@H](CCCNC(=N)N)NC(=O)[C@H](CCCNC(=N)N)NC(=O)[C@@H](CCCNC(=N)N)NC1=O [CPP12^FITC] (cyclo(F[dF][2Nal]R[dR]R[dR]E([AEEA-Lys(5-FITC)NH2]))) ? 29

Test system proteins in FBS; read-out Kd; what value for N=C(N)NCCC[C@@H]1NC(=O)[C@H](Cc2ccc3ccccc3c2)NC(=O)[C@@H](Cc2ccccc2)NC(=O)[C@H](Cc2ccccc2)NC(=O)[C@H](CCC(=O)NCCOCCOCC(=O)N[C@@H](CCCCNC(=O)c2ccc(-c3c4ccc5cc(O)ccc5c4oc4c3ccc3cc(=O)ccc34)c(C(=O)O)c2)C(N)=O)NC(=O)[C@@H](CCCNC(=N)N)NC(=O)[C@H](CCCNC(=N)N)NC(=O)[C@@H](CCCNC(=N)N)NC1=O [CPP12] (cyclo([2Nal]R[dR]R[dR]E([AEEA-X2])F[dF])) ? 1.3

Test system proteins in FBS; read-out Kd; what value for CN(C)c1ccc2c(c1)Oc1cc(N(C)C)ccc1C21OC(=O)c2cc(C(=O)NCCCC[C@H](NC(=O)COCCOCCNC(=O)CC[C@@H]3NC(=O)[C@@H](CCCNC(=N)N)NC(=O)[C@H](CCCNC(=N)N)NC(=O)[C@@H](CCCNC(=N)N)NC(=O)[C@H](CCCNC(=N)N)NC(=O)[C@H](Cc4csc5ccccc45)NC(=O)[C@@H](Cc4ccccc4)NC(=O)[C@H](Cc4ccccc4)NC3=O)C(N)=O)ccc21 [CPP12-2^TMR] (cyclo([Bta]R[dR]R[dR]E([AEEA-X1])F[dF])) ? 68
